Data credit: paper PMC6471591

Test system: HeLa cells
Test: Antiproliferative SRB assay (NCI protocol), 48 h
Format: cell-based, human
Conditions: splenocyte CC50 versus HeLa GI50
measurement-label: Selectivity Index, HeLa
Numbers only.

Study these solved cases before continuing.
# compound, Selectivity Index, HeLa
measured = [
    ("C#CCOC1CC2C(C)CC3OC(=O)C(=C)C3CC2(C)C1OCC#C (centres unmarked)", 3.9),
    ("C=C1C(=O)O[C@@H]2C[C@H](C)[C@@H]3C[C@H](O[Si](C)(C)C)[C@H](O[Si](C)(C)C)[C@@]3(C)C[C@H]12", 22.9),
    ("C=C1C(=O)OC2CC(C)C3CC(O)C(O)C3(C)CC12 (centres unmarked)", 1.5),
]

Would you be so kind as to report Selectivity Index, HeLa for each listed record?
1. C=C1C(=O)OC2CC(C)C3CC(OCc4cn(Cc5ccccc5)nn4)C(OCc4cn(Cc5ccccc5)nn4)C3(C)CC12 (centres unmarked)
2. C=C1C(=O)O[C@@H]2C[C@H](C)[C@@H]3C[C@H](OC(C)=O)[C@H](OC(C)=O)[C@@]3(C)C[C@H]12
3. C=C1C(=O)O[C@@H]2C[C@@H](C)[C@@H]3C=CC(=O)[C@@]3(C)[C@@H](O[Si](C)(C)C(C)C)[C@H]12
4. C=C1C(=O)O[C@@H]2C[C@@H](C)[C@@H]3C=CC(=O)[C@@]3(C)[C@@H](O)[C@H]12
5. C=C1C(=O)O[C@@H]2[C@H]1CC[C@H](C)[C@@]1(O)C=CC(=O)[C@@]21C
6. C#CCOC1CC2C(C)CC3OC(=O)C(=C)C3CC2(C)C1O (centres unmarked)

Output:
88.8
15.0
9.3
0.7
0.3
9.5

Would you be so kind as to report Selectivity Index, HeLa for each listed record?
1. C=C1C(=O)O[C@@H]2C[C@@H](C)[C@@H]3C=CC(=O)[C@@]3(C)[C@@H](O[Si](C)(C)C)[C@H]12
2. C=C1C(=O)O[C@@H]2C[C@H](C)[C@@H]3C[C@H](O[Si](c4ccccc4)(c4ccccc4)C(C)(C)C)[C@H](O)[C@@]3(C)C[C@H]12
3. C=C1C(=O)O[C@@H]2C[C@H](C)[C@@H]3C[C@H](O[Si](C)(C)C(C)C)[C@H](O[Si](C)(C)C(C)C)[C@@]3(C)C[C@H]12
4. C=C1C(=O)O[C@@H]2[C@H]1CC[C@H](C)[C@@]1(O[Si](C)(C)C)C=CC(=O)[C@@]21C
5. C=C1C(=O)OC2CC(C)C3CC(OCc4cn(Cc5ccccc5)nn4)C(O)C3(C)CC12 (centres unmarked)

Output:
[5.8, 71.3, 70.6, 0.7, 3.5]

* * *

Test system: A549 cells
Experiment: Antiproliferative SRB assay (NCI protocol), 48 h
Type: cell-based
Conditions: Homo sapiens; A549 (lung), SRB, 48 h drug exposure; read-out: 50% growth inhibition (GI50) ± SD, A549
Would you mind telling me the reported GI50 of each entry?
Numbers only, in µM.

Study these solved cases before continuing.
# compound, unit-descriptor, GI50
measured = [
    ("C=C1C(=O)O[C@@H]2C[C@H](C)[C@@H]3C[C@H](O[Si](C)(C)C(C)C)[C@H](O[Si](C)(C)C(C)C)[C@@]3(C)C[C@H]12", "µM", 1.2),
    ("C=C1C(=O)O[C@@H]2C[C@@H](C)[C@@H]3C=CC(=O)[C@@]3(C)[C@@H](O[Si](C)(C)C)[C@H]12", "µM", 0.59),
    ("C=C1C(=O)O[C@@H]2[C@H]1CC[C@H](C)[C@@]1(O)C=CC(=O)[C@@]21C", "µM", 9.7),
    ("C=C1C(=O)OC2CC(C)C3CC(OCc4cn(Cc5ccccc5)nn4)C(O)C3(C)CC12 (stereo not shown)", "µM", 18),
    ("C#CCOC1CC2C(C)CC3OC(=O)C(=C)C3CC2(C)C1O (stereo not shown)", "µM", 18),
]

Would you be so kind as to report GI50 for each listed record?
1. C=C1C(=O)O[C@@H]2C[C@@H](C)[C@@H]3C=CC(=O)[C@@]3(C)[C@@H](O[Si](C)(C)C(C)C)[C@H]12
2. C=C1C(=O)OC2CC(C)C3CC(OCc4cn(Cc5ccccc5)nn4)C(OCc4cn(Cc5ccccc5)nn4)C3(C)CC12 (stereo not shown)
3. C=C1C(=O)O[C@@H]2[C@H]1CC[C@H](C)[C@@]1(O[Si](C)(C)C)C=CC(=O)[C@@]21C
4. C#CCOC1CC2C(C)CC3OC(=O)C(=C)C3CC2(C)C1OCC#C (stereo not shown)

Output:
1. 0.28
2. 3.7
3. 3.4
4. 17
